assay_notes: Pharmacokinetic test in rats
Assay type: in vivo, Sprague-Dawley (SD) rats
measurement_context: Sprague-Dawley, rat, po; male SD rats, intragastric administration of 10 mg/kg, plasma; read-out: area under the blood concentration-time curve AUC0-t
Listing of recorded AUC(0-t) by entry.
Write the numeric value and follow it with the unit.

CC[C@H]1[C@@H](O)C2C3CCC([C@H](C)CC4SC(=O)NC4=O)[C@@]3(C)CCC2[C@@]2(C)CC[C@@H](O)C[C@@H]12 (single isomer, unassigned) [Example 14-β]	41800 ng·h/mL

Challenge: Given the entry CC[C@H]1[C@@H](O)[C@@H]2[C@H](CC[C@]3(C)[C@@H]([C@H](C)CCC(=O)O)CC[C@@H]23)[C@@]2(C)CC[C@@H](O)C[C@@H]12 [INT-747, reference compound] , report its measured AUC(0-t).
Response given: 9030 ng·h/mL

###

system: FXR receptor (Homo sapiens, UniProt Q96RI1)
Construct: Prepared 2× GST-labeled FXR-LBD/anti-GST Eu mixture to the required volume, the concentration of GST-FXR-LBD was 6 nM
Sequence (Q96RI1 262-486 limits assumed): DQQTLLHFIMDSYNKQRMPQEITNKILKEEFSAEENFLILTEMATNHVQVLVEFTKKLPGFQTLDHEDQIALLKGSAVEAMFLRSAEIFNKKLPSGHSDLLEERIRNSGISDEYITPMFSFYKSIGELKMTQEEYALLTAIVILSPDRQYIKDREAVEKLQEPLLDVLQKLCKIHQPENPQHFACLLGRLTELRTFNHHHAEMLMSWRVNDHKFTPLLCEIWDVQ
Sequence (Q15788 676-700 partner limits assumed): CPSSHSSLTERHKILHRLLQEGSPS
assay_notes: FXR receptor binding activity assay (TR-FRET; GST-FXR-LBD / SRC1 fragment)
measurement_context: FXR-LBD binding to SRC1 fragment, agonist rate
Mark YES only for EC50 values smaller than 200 nM; exact matches and larger values are NO.

Previously resolved entries follow.
CC[C@H]1[C@@H](O)C2C3CCC([C@H](C)CCc4nnc(C(=O)O)o4)[C@@]3(C)CCC2[C@@]2(C)CC[C@@H](O)C[C@@H]12 (some centres unmarked)	NO
C[C@H](CC1SC(=O)NC1=O)C1CCC2C3C(CC[C@@]21C)[C@@]1(C)CC[C@@H](O)C[C@H]1C[C@H]3O (stereo partly drawn) [Example 15-α]	YES
CC[C@H]1[C@@H](O)C2C3CCC([C@H](C)CCC(=O)NOCCO)[C@@]3(C)CCC2[C@@]2(C)CC[C@@H](O)C[C@@H]12 (some centres unmarked)	NO

Challenge: EC50 strictly < 200 nM for this compound? CC[C@H]1[C@@H](O)C2C3CCC([C@H](C)CCC(=O)NC#N)[C@@]3(C)CCC2[C@@]2(C)CC[C@@H](O)C[C@@H]12 (some centres unmarked)
Response given: YES

Challenge: EC50 strictly < 200 nM for this compound? C[C@H](CC1SC(=O)NC1=O)C1CCC2C3C(CC[C@@]21C)[C@@]1(C)CC[C@@H](O)C[C@H]1C[C@H]3O (stereo partly drawn) [Example 15-β]
Response given: NO

###

system: UniProt Q96RI1
assay_notes: FXR reporter gene expression test (dual luciferase, FXR Gal4 reporter in HepG2 cells)
measurement_context: HepG2 cells transiently transfected with FXR Gal4 reporter, 18 hours
pEC50: −log10 of the molar value.
Please note: TRUE applies when pEC50 is 6 or greater, and FALSE applies otherwise.

CC[C@H]1[C@@H](O)C2C3CCC([C@H](C)CC4SC(=O)NC4=O)[C@@]3(C)CCC2[C@@]2(C)CC[C@@H](O)C[C@@H]12 (single isomer, unassigned) [Example 14-α]	TRUE

Challenge: Tell me whether pEC50 is at least 6 here: CC[C@@H]1[C@@H]2[C@@H](F)[C@H](O)CC[C@]2(C)C2CC[C@@]3(C)C(CCC3[C@H](C)CCC(=O)O)C2[C@@H]1O (stereo partly drawn) [Example 1]
Response given: FALSE

###

assay_notes: Pharmacokinetic test in rats
Assay type: in vivo, Sprague-Dawley (SD) rats
measurement_context: Sprague-Dawley, rat, po; male SD rats, intragastric administration of 10 mg/kg, plasma; read-out: peak concentration Cmax
Protocol: Pharmacokinetic Test in Rats The pharmacokinetic study of the present invention was performed in rats. The pharmacokinetic behavior of the positive control INT-747 and a representative compound of the present invention, such as Example 14-β, was studied in rats, and their pharmacokinetic characteristics were evaluated. (1) Three male Sprague-Dawley (SD) rats were used, which were supplied by Sippr-BK laboratory animal Co. Ltd. Animal Production License No. SOCK (Shanghai) 2008-0016. […]
readout_name: Cmax
Write the numeric value and follow it with the unit.

CC[C@H]1[C@@H](O)C2C3CCC([C@H](C)CC4SC(=O)NC4=O)[C@@]3(C)CCC2[C@@]2(C)CC[C@@H](O)C[C@@H]12 (single isomer, unassigned)	7580 ng/mL

Challenge: Given the entry CC[C@H]1[C@@H](O)[C@@H]2[C@H](CC[C@]3(C)[C@@H]([C@H](C)CCC(=O)O)CC[C@@H]23)[C@@]2(C)CC[C@@H](O)C[C@@H]12 [INT-747, reference compound] , report its measured Cmax.
Response given: 4410 ng/mL

###

Listing of recorded EC50 by entry.
system: FXR (Homo sapiens)
Sequence (Q96RI1 262-486 limits assumed): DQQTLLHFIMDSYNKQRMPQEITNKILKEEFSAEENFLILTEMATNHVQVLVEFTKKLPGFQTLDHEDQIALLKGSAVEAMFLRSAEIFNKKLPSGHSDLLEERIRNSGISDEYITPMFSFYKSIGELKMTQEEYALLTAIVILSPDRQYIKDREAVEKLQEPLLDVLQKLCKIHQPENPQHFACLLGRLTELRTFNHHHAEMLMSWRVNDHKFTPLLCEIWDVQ
assay_notes: FXR reporter gene expression test (dual luciferase, FXR Gal4 reporter in HepG2 cells)
measurement_context: HepG2 cells transiently transfected with FXR Gal4 reporter, 18 hours
Write the value in nM as a bare number.

Solved entries (count: 3):
CC[C@H]1[C@@H](O)C2C3CCC([C@H](C)CCC(=O)NC#N)[C@@]3(C)CCC2[C@@]2(C)CC[C@@H](O)C[C@@H]12 (stereo partly shown)	2530
CC[C@H]1[C@@H](O)C2C3CCC([C@H](C)CCc4nnc(C(=O)O)o4)[C@@]3(C)CCC2[C@@]2(C)CC[C@@H](O)C[C@@H]12 (stereo partly shown)	5200
CC[C@H]1[C@@H](O)C2C3CCC([C@H](C)CC4SC(=O)NC4=O)[C@@]3(C)CCC2[C@@]2(C)CC[C@@H](O)C[C@@H]12 (single isomer, unassigned) [Example 14-β]	57

// moving on: another record for EC50
Challenge: Given the entry CC[C@H]1[C@@H](O)C2C3CCC([C@H](C)CCc4n[nH]c(=O)o4)[C@@]3(C)CCC2[C@@]2(C)CC[C@@H](O)C[C@@H]12 (stereo partly shown) , report its measured EC50.
Response given: 1400
